# TARGET_OR_SYSTEM: T1, NativeRPtag(large)_with_Tags_and_Cys (Thermoanaerobacter tengcongensis)
# T1 construct: Unlabeled in anisotropy assays; coupled through the engineered N-terminal Cys to SulfoLink agarose or maleimide plates in column, pull-down and ELISA assays
# T1 chain: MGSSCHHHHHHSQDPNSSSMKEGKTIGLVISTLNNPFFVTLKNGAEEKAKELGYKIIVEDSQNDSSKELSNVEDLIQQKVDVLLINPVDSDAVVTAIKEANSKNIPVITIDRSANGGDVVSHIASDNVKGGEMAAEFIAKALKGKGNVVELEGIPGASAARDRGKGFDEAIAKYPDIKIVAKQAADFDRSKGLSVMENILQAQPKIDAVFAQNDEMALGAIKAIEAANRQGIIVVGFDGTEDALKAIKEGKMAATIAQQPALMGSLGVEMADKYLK
# ASSAY_INFO: fluorescence anisotropy; 50 mM Tris pH 8.0, 0.005% Tween 20, no additive
No end group written: not given here. *: point of attachment. RhodamineB = CCN(CC)c1ccc2c(-c3ccccc3C(=O)*)c3ccc(=[N+](CC)CC)cc-3oc2c1
Below, each of the binders is paired with its reported Kd value.

{"BINDER": "RhodamineB-GEKIPNFIPAELKLITKENVQ (Synthetic peptide) [native RPtag(small)]", "Kd [nM]": 0.21}
{"BINDER": "RhodamineB-KIANFIPAELKLITKANVQ (also: also used unlabeled as competitor, Rhodamine labeled in the Kd assays; also called RPtag(small) (tight)) [RPtag(small) Nd2, p5a, e18a]", "Kd [nM]": 0.047}

Values were extracted from patent US20200102347A1.
